Tested on: promastigote forms of Leishmania amazonensis (WHOM/BR/75/JOSEFA strain)
Run description: Antiproliferative assay (XTT), promastigote forms, 72 h
Assay type: cell-based
Experimental conditions: Leishmania amazonensis; promastigote form, 72 h, XTT; read-out: L. amazonensis IC50
Listed here are molecules together with their documented IC50.

- Compound structure string: "COc1ccc(NCc2c(C(=O)N/N=C/c3ccc(-c4cccs4)s3)noc2-c2ccccc2)cc1"
  Value comparator: "="
  IC50 (µM): 17.2
- Compound structure string: "O=C(N/N=C/c1ccccn1)c1noc(-c2ccc(Cl)cc2)c1CNc1ccccc1"
  Value comparator: "="
  IC50 (µM): 69
- Compound structure string: "COc1ccc(NCc2c(C(=O)NN)noc2-c2ccc(F)cc2)cc1"
  Value comparator: "="
  IC50 (µM): 59.2
- Compound structure string: "O=C(N/N=C/c1ccccn1)c1noc(-c2ccc(F)cc2)c1CNc1ccc(Cl)cc1"
  Value comparator: "="
  IC50 (µM): 22.6
- Compound structure string: "COc1ccc(NCc2c(C(=O)N/N=C/c3ccccn3)noc2-c2ccc([N+](=O)[O-])cc2)cc1"
  Value comparator: ">"
  IC50 (µM): 200
- Compound structure string: "O=C(N/N=C/c1ccc(-c2cccs2)s1)c1noc(-c2ccc([N+](=O)[O-])cc2)c1CNc1ccccc1"
  Value comparator: "="
  IC50 (µM): 32.9
- Compound structure string: "CCOC(=O)c1noc(-c2ccc(Cl)cc2)c1CNc1ccc(Cl)cc1"
  Value comparator: "="
  IC50 (µM): 21.6
- Compound structure string: "O=C(N/N=C/c1ccccn1)c1noc(-c2ccccc2)c1CNc1ccccc1"
  Value comparator: "="
  IC50 (µM): 35.8
- Compound structure string: "O=C(N/N=C/c1ccc(-c2cccs2)s1)c1noc(-c2ccc(F)cc2)c1CNc1ccc(Cl)cc1"
  Value comparator: "="
  IC50 (µM): 19.7
- Compound structure string: "O=C(N/N=C/c1ccc(-c2cccs2)s1)c1noc(-c2ccc(Cl)cc2)c1CNc1ccccc1"
  Value comparator: "="
  IC50 (µM): 28
- Compound structure string: "COc1ccc(NCc2c(C(=O)NN)noc2-c2ccccc2)cc1"
  Value comparator: "="
  IC50 (µM): 12.4
- Compound structure string: "NNC(=O)c1noc(-c2ccc(Cl)cc2)c1CNc1ccccc1"
  Value comparator: "="
  IC50 (µM): 23.1
- Compound structure string: "COc1ccc(NCc2c(C(=O)N/N=C/c3ccc(-c4cccs4)s3)noc2-c2ccc(F)cc2)cc1"
  Value comparator: "="
  IC50 (µM): 20.6
- Compound structure string: "O=C(N/N=C/c1ccccn1)c1noc(-c2ccc([N+](=O)[O-])cc2)c1CNc1ccccc1"
  Value comparator: "="
  IC50 (µM): 126
- Compound structure string: "COc1ccc(NCc2c(C(=O)N/N=C/c3ccccc3)noc2-c2ccc([N+](=O)[O-])cc2)cc1"
  Value comparator: "="
  IC50 (µM): 14.5
- Compound structure string: "O=C(N/N=C/c1ccccn1)c1noc(-c2ccccc2)c1CNc1ccc(Cl)cc1"
  Value comparator: "="
  IC50 (µM): 27.8
- Compound structure string: "O=C(N/N=C/c1ccccc1)c1noc(-c2ccc([N+](=O)[O-])cc2)c1CNc1ccccc1"
  Value comparator: "="
  IC50 (µM): 40.7
- Compound structure string: "CCOC(=O)c1noc(-c2ccc(Cl)cc2)c1CNc1ccccc1"
  Value comparator: "="
  IC50 (µM): 29.9

Taken from paper PMC8485799.
